Target: human recombinant A3AR (expressed in HEK-293 cells) (Homo sapiens, UniProt P0DMS8)
Construct: host or cells: HEK-293 cells
Sequence (P0DMS8 whole entry): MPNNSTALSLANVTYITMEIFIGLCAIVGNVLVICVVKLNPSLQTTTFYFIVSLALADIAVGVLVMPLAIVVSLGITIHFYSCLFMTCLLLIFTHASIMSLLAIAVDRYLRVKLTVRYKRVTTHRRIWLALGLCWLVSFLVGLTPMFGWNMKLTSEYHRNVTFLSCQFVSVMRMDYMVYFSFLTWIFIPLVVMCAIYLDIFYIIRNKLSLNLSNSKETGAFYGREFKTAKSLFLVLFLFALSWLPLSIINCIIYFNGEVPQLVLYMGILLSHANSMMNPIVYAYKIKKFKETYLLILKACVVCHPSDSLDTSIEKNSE
Assay: Adenosine receptors antagonism assay (Eurofins), [125I]-AB-MECA radioligand competition
Type: binding
recorded-endpoint: IC50

## Input If you can, please state the reported IC50 value of CCC(CC)Nc1cc(NC(=O)Oc2ccccc2)c2nnc(C(C)C)n2n1 .
## Output 1 to 10 nM

----------
Biological target: human recombinant A3AR (expressed in HEK-293 cells) (Homo sapiens, UniProt P0DMS8)
Construct: host or cells: HEK-293 cells
Test: Adenosine receptors antagonism assay (Eurofins), [125I]-AB-MECA radioligand competition
Assay type: binding
Settings: [125I]-AB-MECA 0.15 nM, r.t., 120 min; IC50 from dose-response curves; read-out: Potency Class A3AR
recorded-endpoint: IC50

Worked cases, IC50 given:
## Input I'd like to know its IC50. The compound in question is CNC(=O)CCNc1cc(NCc2ccccc2)c2nnc(C(C)C)n2n1 [compound 26]
## Output 10 to 100 nM

## Input And what about the compound COCCCNc1cc(NCc2ccccc2)c2nnc(C(C)C)n2n1 [compound 10] ?
## Output 10 to 100 nM

## Input Field entry: CCC(CC)Nc1cc(Nc2ccc(OC)nn2)c2nnc(C3CC3)n2n1 [compound 215]
## Output < 1 nM

More entries:
## Input I would be grateful if you could share the reported IC50 for COC(=O)CCNc1cc(NCc2ccccc2)c2nnc(C(C)C)n2n1 [compound 28] .
## Output 10 to 100 nM
